assay.system: RNF-MD S5i (E766K in RNF20 and K57E/R804E in RNF40) (human) (UniProt Q5VTR2)
assay.protocol: SPR; RNF-MD immobilised on a CM5 chip, intein-WAC flown over; Biacore 8K, 25°C, 20 mM HEPES (pH 7.5), 200 mM sodium chloride, 0.02% Tween 20
pKd: −log10 of the molar value.

{"columns": ["binder", "pKd"],
 "data": [
  ["intein-CBD-tagged WAC-CT (WAC residues 570–647) (domain or fragment) HVQGWPADHAEKQASRLREEAHNMGTIHMSEICTELKNLRSLVRVCEIQATLREQRILFLRQQIKELEKLKNQNSFMV", 6.33]
]}
